Documented Stability Bias (%) across a set of compounds
- test_description: Stability of analytes in whole blood samples
- Assay type: in vitro ADME, rat
- settings: Freeze-thaw (4 cycles), medium concentration 95–160 ng/ml (0.5 µM), n = 6
Write the numeric value and follow it with the unit.

compound	measure	value_measured
CCOC(=O)[C@H]1[C@@H](OC(=O)c2ccccc2)C[C@@H]2CC[C@H]1N2 [Norcocaethylene, norcocaethylene]	Stability Bias (%)	−4.4%
COC(=O)[C@H]1[C@@H](O)C[C@@H]2CC[C@H]1N2 [NEME, norecgonine methyl ester]	Stability Bias (%)	−5.4%
CN1[C@H]2CC[C@@H]1[C@@H](C(=O)O)[C@@H](OC(=O)c1ccccc1)C2 [BE, benzoylecgonine]	Stability Bias (%)	5.5%

Let us examine a further case.
Prompt line: // lookup Stability Bias (%) for CCOC(=O)[C@@H]1[C@H]2CC[C@@H](C[C@@H]1O)N2C [EEE, ecgonine ethyl ester]
Response line: −9.3%

###

- test_description: Stability of analytes in whole blood samples
- Format: in vitro ADME, rat
- settings: Bench top (4 hours, room temperature), medium concentration 95–160 ng/ml (0.5 µM), n = 6
Documented Stability Bias (%) across a set of molecules

structure	Stability Bias (%)
CN1[C@H]2CC[C@@H]1[C@@H](C(=O)O)[C@@H](OC(=O)c1ccccc1)C2	0.7%
COC(=O)[C@H]1[C@@H](O)C[C@@H]2CC[C@H]1N2	−1.5%

Let us examine a further case.
Prompt line: // lookup Stability Bias (%) for COC(=O)[C@H]1[C@@H](OC(=O)c2ccccc2)C[C@@H]2CC[C@H]1N2C
Response line: 0.3%
